Consider the following compounds and their measured normalized growth readings.
test: chemical genetic growth profiling, strain panel (AID 1159580);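 further: tested at 20 µM; growth read once vehicle control cultures reached saturation at 30 °C; 1 = growth at the plate median or of vehicle wells; lower values mean less growth of the strain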; conditions: S. cerevisiae deletion strains, growth OD, locus YKL048C, strain ELM1, hits give low values
The campaign covered roughly 5,500 compounds. About 2,000 (36%) were called active. About 18% were inconclusive and are not listed. The list shows a part of the results.
Response field accepts a number only; no unit should be typed.

Some solved entries appear below for comparison.
> print(dat)
                                   compound     assay.endpoint  assay.result
1         Cc1ccc(-c2csc(-c3cccnc3)n2)c(C)c1  normalized growth         0.939
2  O=C(Oc1ccc(C(F)(F)F)cc1[N+](=O)[O-])c1cccc(Cl)c1  normalized growth         0.623
3      Cc1cc(C(=O)Nc2ccc(Cl)cc2)nn1C(C)(C)C  normalized growth         0.983
4  COc1cc(NC(=S)NNS(=O)(=O)c2ccc(C)cc2)c(OC)cc1Cl  normalized growth         0.953
5      Cc1c(Cc2ccc(F)cc2)c(=O)oc2cc(O)ccc12  normalized growth         0.969

normalized growth reported for this compound CSC1=NNC(c2nn(C)cc2Cl)S1 (stereo not given) : 0.158

normalized growth reported for this compound `O=S(=O)(Nc1cccc2nsnc12)c1cc(Cl)sc1Cl` : 0.916

normalized growth reported for this compound O=C1C(=O)N(CN2CCc3c([nH]c4ccccc34)C2C(F)(F)F)c2ccc(F)cc21 (stereo not given) : 0.879

normalized growth reported for this compound `COc1ccc(NNC(=O)c2sc3ccccc3c2Cl)cc1` : 0.658

normalized growth reported for this compound `COc1cc(NC(=S)NC(=O)c2ccccc2)c(OC)cc1Cl` : 0.981
